Just for reference, the OPERA property sets (Mansouri et al. 2018) is where these values come from.

Measured Quantity: logP

// known answers, use as guide
C[C@@H]1CC2=CC(=O)CC[C@@H]2[C@H]2CC[C@@]3(C)[C@@H](CC[C@]3(C)O)[C@@H]21 :: 3.19
CCN1CC(C(O)C(CC2CCCCC2)NC(=O)C(Cc2cnc[nH]2)NC(=O)C(Cc2ccc(OC)cc2)NC(=O)N2CC(OCOC)C(OCOC)C2)OC1=O (stereo not given) :: 2.06
O=C(O)/C=C/Oc1ccc(Cl)cc1Cl :: 3.46
CCCOc1cc(Cc2cnc(N)nc2N)ccc1OC :: 1.88
CC12CCC(=O)C=C1CCC1C3CCC4(CCC(=O)O4)C3(C)CC(O)C12F (stereo not given) :: 2.4
CCCCc1ccc(CC(=O)O)cc1 :: 3.25

Dear colleague, I am looking for the recorded logP of the following compound: CCCCCCCCc1ccccc1
6.3

Query (compound): CC1=C(C(=O)Nc2ccccc2)S(=O)CCO1 (stereo not given) ; field requested: logP
0.64

Any idea what logP was measured for CCN1CC(C(O)C(CC2CCCCC2)NC(=O)C(Cc2c[nH]cn2)NC(=O)C(CC(=O)N2CCOCC2)Cc2ccccc2)OC1=O (stereo not given) ?
2.2

Can you look up the measured logP of CC(=O)Oc1cc(OC(C)CCCc2ccccc2)cc2c1C1CC(O)CCC1C(C)N2C (stereo not given) for me?
5.72

---

Measured Quantity: logP
Quick one: just the number, no unit, thanks!

CC(CC(=O)O)CC(=O)c1ccc(-c2ccccc2)cc1 (stereo unspecified) :: 3.82
CCOC(=O)C(C(=O)OCC)=C1SCCS1 :: 2.45
O=C(O)c1ccc(Cl)cc1Nc1cccc(Cl)c1 :: 5

What logP value was documented for this compound, CCC(C(=O)OCc1ccccc1)C(CO)Cc1cncn1C (stereo unspecified) ?
1.97

Would you mind telling me what logP value was observed for CC(=O)O[C@]1(C(=O)CO)CC[C@H]2[C@@H]3CCC4=CC(=O)CC[C@]4(C)[C@H]3[C@@H](O)C[C@@]21C ?
2.3

Fill in: logP of CCC(C(=O)OCc1ccccc1)C(COC(=O)c1cccc(Cl)c1)Cc1cncn1C (stereo unspecified) is ___
5.08

Look up logP for this compound: CCOc1cccc(NC(=O)CN2CCCCC2)c1
3.17

---

Recorded logP values for a group of compounds are listed next.

Example entries begin here.
Nc1ncc(Cc2cc3c(cc2Br)OCO3)c(N)n1 :: 2.48
CCOC(=O)CNC(=O)CNC(=O)CNC(=O)CCCCSc1ncnc2nc[nH]c12 :: 0.21
O=C(NN1CC=CCC1)c1ccco1 :: 0.81

Any idea what its logP is? The compound is Clc1ccc(-c2ccccc2Cl)cc1
5.09

Look at this compound and give its reported logP. CC1c2nc3ccccc3c(=O)n2CN1Cc1ccccc1 (configuration not stated)
1.72

Looking for the measured logP of CC/C=C\C/C=C\C/C=C\CCCCCCCC(=O)O , can you help?
6.46

Quick check: logP of CCCCCCCCC(C)(C)c1ccc(C2CCCC(O)C2)c(O)c1 (configuration not stated) ?
8.16

For the compound Cc1ccc(F)cc1NC1=NCCN1 , what logP is on record?
1.41

Given the entry CCOC(=O)CC(NC(=O)CCCCSc1ncnc2nc[nH]c12)C(=O)OCC (configuration not stated) , report its measured logP.
1.33

Tell me the measured logP of Nc1ncnc2c1ncn2[C@H]1CC[C@@H](CO)O1 , please.
-0.25
